Reported melting point is given for each of the following compounds.

Examples with their reported melting point follow.
{"columns": ["compound", "melting point"],
 "data": [
  ["CC(=NNC(=O)C(CC(C)C)NC(=O)C(Cc1ccccc1)NC(=O)c1cncc(C(=O)NC(Cc2ccccc2)C(=O)NC(CC(C)C)C(=O)NN=C(C)c2cccnc2)c1)c1cccnc1 (stereo not shown) (hydrate or solvate)", "208 to 210 °C"],
  ["CC(C)CC(NC(=O)C(Cc1ccccc1)NC(=O)c1cncc(C(=O)NC(Cc2ccccc2)C(=O)NC(CC(C)C)C(=O)NN=Cc2cccs2)c1)C(=O)NN=Cc1cccs1 (stereo not shown)", "218 to 220 °C"],
  ["CC(=NNC(=O)C(CC(C)C)NC(=O)C(Cc1ccccc1)NC(=O)c1cncc(C(=O)NC(Cc2ccccc2)C(=O)NC(CC(C)C)C(=O)NN=C(C)c2ccccn2)c1)c1ccccn1 (stereo not shown) (hydrate or solvate)", "216 to 218 °C"]
]}

Next compound, please.
Request: Data request, read-out melting point, for CC(C)CC(NC(=O)C(Cc1ccccc1)NC(=O)c1cncc(C(=O)NC(Cc2ccccc2)C(=O)NC(CC(C)C)C(=O)NN=C2CCCCC2)c1)C(=O)NN=C1CCCCC1 (stereo not shown)
Result: 198 to 200 °C
